Experiment: Dry Sympatec PSD analysis (particle size distribution)
Assay type: physicochemical
Details: after isolation
From the text: Particle size or particle diameter as used herein can be suitably determined by laser diffraction based methods, for example as described in ISO Standard 13320-1. Laser diffraction particle sizing apparatus such as the Malvern Mastersizer 2000™ can be used.
OUTCOME MEASURE: Particle Size, cumulative distribution Q3 X90 (μ)
The response must be a number in μ with no trailing unit.

CCC(=O)OCC(=O)[C@@]1(OC(=O)CC)[C@@H](C)C[C@H]2[C@@H]3CCC4=CC(=O)C=C[C@]4(C)[C@@]3(Cl)[C@@H](O)C[C@@]21C.O [Example 1, beclomethasone diproprionate]; 4.67

Quick one: Particle Size, cumulative distribution Q3 X90 of CCC(=O)OCC(=O)[C@@]1(OC(=O)CC)[C@@H](C)C[C@H]2[C@@H]3CCC4=CC(=O)C=C[C@]4(C)[C@@]3(Cl)[C@@H](O)C[C@@]21C.O [Comparative Example 2, beclomethasone diproprionate, reference compound] ?
15.10

Could you do the same for CCC(=O)OCC(=O)[C@@]1(OC(=O)CC)[C@@H](C)C[C@H]2[C@@H]3CCC4=CC(=O)C=C[C@]4(C)[C@@]3(Cl)[C@@H](O)C[C@@]21C.O [Example 3, beclomethasone diproprionate] , please?
3.17

Could you do the same for CCC(=O)OCC(=O)[C@@]1(OC(=O)CC)[C@@H](C)C[C@H]2[C@@H]3CCC4=CC(=O)C=C[C@]4(C)[C@@]3(Cl)[C@@H](O)C[C@@]21C.O [Comparative Example 1, beclomethasone diproprionate, reference compound] , please?
8.76

---

# Particle Size, cumulative distribution Q3 X10 per record follows
Assay: Dry Sympatec PSD analysis (particle size distribution)
Type: physicochemical
Settings: after isolation
The response must be a number in μ with no trailing unit.

Please review the entries below; each comes with its answer.
CCC(=O)OCC(=O)[C@@]1(OC(=O)CC)[C@@H](C)C[C@H]2[C@@H]3CCC4=CC(=O)C=C[C@]4(C)[C@@]3(Cl)[C@@H](O)C[C@@]21C.O [Comparative Example 2, beclomethasone diproprionate, reference compound]; 1.78
CCC(=O)OCC(=O)[C@@]1(OC(=O)CC)[C@@H](C)C[C@H]2[C@@H]3CCC4=CC(=O)C=C[C@]4(C)[C@@]3(Cl)[C@@H](O)C[C@@]21C.O [Example 3, beclomethasone diproprionate]; 0.51
CCC(=O)OCC(=O)[C@@]1(OC(=O)CC)[C@@H](C)C[C@H]2[C@@H]3CCC4=CC(=O)C=C[C@]4(C)[C@@]3(Cl)[C@@H](O)C[C@@]21C.O [Comparative Example 1, beclomethasone diproprionate, reference compound]; 0.84

Quick one: Particle Size, cumulative distribution Q3 X10 of CCC(=O)OCC(=O)[C@@]1(OC(=O)CC)[C@@H](C)C[C@H]2[C@@H]3CCC4=CC(=O)C=C[C@]4(C)[C@@]3(Cl)[C@@H](O)C[C@@]21C.O [Example 1, beclomethasone diproprionate] ?
0.69

---

Experiment: Dry Sympatec PSD analysis (particle size distribution)
Assay type: physicochemical
Conditions: after isolation
OUTCOME MEASURE: Particle Size, cumulative distribution Q3 X50 (μ)
The response must be a number in μ with no trailing unit.

Please review the entries below; each comes with its answer.
CCC(=O)OCC(=O)[C@@]1(OC(=O)CC)[C@@H](C)C[C@H]2[C@@H]3CCC4=CC(=O)C=C[C@]4(C)[C@@]3(Cl)[C@@H](O)C[C@@]21C.O [Example 1, beclomethasone diproprionate]; 2.41
CCC(=O)OCC(=O)[C@@]1(OC(=O)CC)[C@@H](C)C[C@H]2[C@@H]3CCC4=CC(=O)C=C[C@]4(C)[C@@]3(Cl)[C@@H](O)C[C@@]21C.O [Example 3, beclomethasone diproprionate]; 1.35
CCC(=O)OCC(=O)[C@@]1(OC(=O)CC)[C@@H](C)C[C@H]2[C@@H]3CCC4=CC(=O)C=C[C@]4(C)[C@@]3(Cl)[C@@H](O)C[C@@]21C.O [Comparative Example 1, beclomethasone diproprionate, reference compound]; 3.58

Quick one: Particle Size, cumulative distribution Q3 X50 of CCC(=O)OCC(=O)[C@@]1(OC(=O)CC)[C@@H](C)C[C@H]2[C@@H]3CCC4=CC(=O)C=C[C@]4(C)[C@@]3(Cl)[C@@H](O)C[C@@]21C.O [Comparative Example 2, beclomethasone diproprionate, reference compound] ?
8.10
